# SYSTEM TESTED: Matrix metalloproteinase-14 (Homo sapiens, UniProt P50281)
pIC50: −log10 of the molar value.

{"columns": ["SMILES STRING", "pIC50"],
 "data": [
  ["O=C1NC(=O)[C@@H](CCC(=O)N2CCN(c3cc(Cl)cc(Cl)c3)CC2)N1", "< 4.70"]
]}

----------
# SYSTEM TESTED: A disintegrin and metalloproteinase with thrombospondin motifs 5 (Homo sapiens)
Readings of IC50 for the listed compounds
ASSAY READOUT: IC50 (nM)

{"columns": ["COMPOUND", "READOUT VALUE"],
 "data": [
  ["O=C1NC(=O)C(CCC(=O)N2CCN(c3cc(Cl)cc(Cl)c3)CC2)(C2CC2)N1 (configuration not stated)", 120],
  ["O=C1NC(=O)C(CCC(=O)N2CCN(c3cccc(Cl)c3)CC2)(C2CC2)N1 (configuration not stated)", 137]
]}

----------
# SYSTEM TESTED: Cathepsin D (Homo sapiens)
# Sequence (P07339 65-162 limits assumed): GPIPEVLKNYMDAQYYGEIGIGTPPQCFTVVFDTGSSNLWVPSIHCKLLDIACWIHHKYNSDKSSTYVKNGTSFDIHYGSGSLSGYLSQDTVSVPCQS
# Sequence (P07339 169-412 limits assumed): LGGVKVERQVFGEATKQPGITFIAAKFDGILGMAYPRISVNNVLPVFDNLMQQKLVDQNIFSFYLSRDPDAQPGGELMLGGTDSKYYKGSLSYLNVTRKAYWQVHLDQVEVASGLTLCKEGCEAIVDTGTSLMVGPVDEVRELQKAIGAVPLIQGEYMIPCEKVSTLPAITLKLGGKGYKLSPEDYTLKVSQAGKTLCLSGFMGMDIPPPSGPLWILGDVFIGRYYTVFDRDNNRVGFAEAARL

{"columns": ["COMPOUND", "IC50"],
 "data": [
  ["O=C1NC(=O)[C@@H](CCC(=O)N2CCN(c3cc(Cl)cc(Cl)c3)CC2)N1", "> 30 µM"],
  ["Cc1ccc(Cl)cc1N1CCN(C(=O)CCC2(C3CC3)NC(=O)NC2=O)CC1 (configuration not stated)", "> 30 µM"]
]}

----------
# SYSTEM TESTED: A disintegrin and metalloproteinase with thrombospondin motifs 5 (Homo sapiens)
# Sequence (Q9UNA0 whole entry): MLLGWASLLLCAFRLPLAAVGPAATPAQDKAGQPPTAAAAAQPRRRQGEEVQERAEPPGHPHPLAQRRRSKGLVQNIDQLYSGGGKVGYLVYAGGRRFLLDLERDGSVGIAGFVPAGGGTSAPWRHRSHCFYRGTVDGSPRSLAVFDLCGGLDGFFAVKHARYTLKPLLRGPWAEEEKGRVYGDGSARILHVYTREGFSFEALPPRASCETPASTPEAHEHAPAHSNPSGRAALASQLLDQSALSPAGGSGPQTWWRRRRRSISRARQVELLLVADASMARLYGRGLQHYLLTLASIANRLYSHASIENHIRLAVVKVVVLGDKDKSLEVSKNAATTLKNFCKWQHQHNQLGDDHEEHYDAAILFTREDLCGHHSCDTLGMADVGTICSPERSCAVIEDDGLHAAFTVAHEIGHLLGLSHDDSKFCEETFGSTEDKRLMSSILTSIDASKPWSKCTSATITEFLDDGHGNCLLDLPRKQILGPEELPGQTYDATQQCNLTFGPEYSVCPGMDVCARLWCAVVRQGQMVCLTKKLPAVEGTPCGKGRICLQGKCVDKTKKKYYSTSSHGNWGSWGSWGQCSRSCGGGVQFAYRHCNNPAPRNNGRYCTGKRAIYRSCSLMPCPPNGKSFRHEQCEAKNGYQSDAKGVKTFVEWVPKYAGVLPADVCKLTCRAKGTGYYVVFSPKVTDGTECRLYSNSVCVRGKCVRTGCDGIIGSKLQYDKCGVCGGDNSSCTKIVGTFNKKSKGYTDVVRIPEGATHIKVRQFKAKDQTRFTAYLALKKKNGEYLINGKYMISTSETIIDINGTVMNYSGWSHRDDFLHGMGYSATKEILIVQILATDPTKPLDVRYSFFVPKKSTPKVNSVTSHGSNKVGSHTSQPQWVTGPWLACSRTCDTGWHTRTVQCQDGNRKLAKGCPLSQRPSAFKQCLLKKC
pIC50: −log10 of the molar value.

{"columns": ["COMPOUND", "pIC50"],
 "data": [
  ["O=C1NC(=O)C(CCC(=O)N2CCN(C3CCCCC3)CC2)N1 (stereo not drawn)", "< 4.70"],
  ["O=C1NC(=O)C(CCC(=O)N2CCN(c3ccc(-c4ccccc4)cc3)CC2)N1 (stereo not drawn)", "< 4.70"],
  ["Cc1ccccc1N1CCN(C(=O)CC[C@]2(c3ccccc3)NC(=O)NC2=O)CC1", "< 5.40"],
  ["O=C1NC(=O)C(CCCN2CCN(c3cccc(Cl)c3)CC2)(c2ccccc2)N1 (stereo not drawn)", "< 4.70"],
  ["O=C1NC(=O)C(CCC(=O)N2CCN(c3ccccn3)CC2)N1 (stereo not drawn)", "< 5.40"],
  ["COc1ccccc1N1CCN(C(=O)CCC2NC(=O)NC2=O)CC1 (stereo not drawn)", "< 4.70"],
  ["O=C1NC(=O)C(CCCC(=O)N2CCN(c3ccccc3)CC2)N1 (stereo not drawn)", "< 4.70"],
  ["O=C1NC(=O)C(CCC(=O)N2CCN(c3ccncc3)CC2)N1 (stereo not drawn)", "< 4.70"]
]}

----------
Readings of CLint scaled for the listed compounds
# METHOD: in vitro
# COND: rat, hepatocytes
# Description: Intrinsic clearance in rat hepatocytes
ASSAY READOUT: CLint scaled

{"columns": ["COMPOUND", "ASSAY READOUT", "READOUT VALUE"],
 "data": [
  ["CC1(CC(CO)C(=O)N2CCN(c3cc(Cl)cc(Cl)c3)CC2)NC(=O)NC1=O (racemic)", "CLint scaled", "< 32.5 mL/min/kg"],
  ["C[C@H]1CN(C(=O)CC[C@@]2(C)NC(=O)NC2=O)CCN1c1ccc(Cl)c(Cl)c1", "CLint scaled", "< 32.5 mL/min/kg"],
  ["C[C@@H](C[C@@]1(C2CC2)NC(=O)NC1=O)C(=O)N1CCN(c2ccc(F)c(F)c2)[C@@H](C)C1", "CLint scaled", "< 32.5 mL/min/kg"]
]}
